- tested_target: T1, human EpCAM on COLO-205 cells (human, UniProt P16422 24-314)
- T1 construct: whole, on cells; Endogenous EpCAM of the EpCAM-positive cell line COLO-205; also called epithelial cell adhesion molecule; Colo205 (EpCAM+)
- T1 sequence (looked up): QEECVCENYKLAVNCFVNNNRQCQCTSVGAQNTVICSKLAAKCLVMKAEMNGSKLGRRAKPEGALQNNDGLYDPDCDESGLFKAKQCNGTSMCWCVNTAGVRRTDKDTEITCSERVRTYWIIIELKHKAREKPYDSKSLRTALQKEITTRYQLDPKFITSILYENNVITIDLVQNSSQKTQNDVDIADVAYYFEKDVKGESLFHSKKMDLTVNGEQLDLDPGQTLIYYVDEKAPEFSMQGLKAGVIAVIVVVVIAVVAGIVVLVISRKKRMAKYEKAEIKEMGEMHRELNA
- protocol_text: flow cytometry, ratio of the signal on COLO-205 (EpCAM+) to that on A375 (EpCAM-) cells
Kindly apply the following: Yes if COLO-205/A375 is less than 10, No in every other case.

EpCAM binding FN3 domain clone 1420 (designed binder, not shown: No entry is named H9) MLPAPKNLVVSRVTEDSARLSWEGYRNNAHFDSFLIQYQESEKVGEAIVLTVPGSERSYDLTGLKPGTEYTVSIYGVVAAVPRNYYSNPLSAIFTT | No

Please find the next binder below.
query: Determine if EpCAM binding FN3 domain clone 1807 (designed binder, not shown: No entry is named H9) MLPAPKNLVVSRVTEDSARLSWTAPDAAFDSFYIRYYEGSGYGEAIVLTVPGSERSYDLTGLKPGTEYYVYIGGVKGGSPSSPLSAIFTTG shows COLO-205/A375 strictly lower than 10.
result: Yes
